# Test system: GB4
# assay_procedure: qHTS profiling for inhibitors of Plasmodium falciparum proliferation (AID 504749); also: nearly all actives have a fitted effect of over 60% in size; also: potency is read from the fitted curve at half-maximal effect
# measurement_parameters: P. falciparum in erythrocytes, SYBR Green DNA, 72 h; series mostly up to 28.7 µM
Results filed as inconclusive are left out. The source made the active and inactive calls. Calls follow the shape of the dose curve; as a rule, active = well fitted inhibition curve with a large enough effect; inconclusive = small, poorly fitted or top-dose-only effect; inactive = flat fitted curve, though single readings scatter.

[
  {
    "molecule": "ClC1=C(Cl)C2(Cl)C3C4CC(C5OC45)C3C1(Cl)C2(Cl)Cl (stereo not given)",
    "Potency": "inactive"
  },
  {
    "molecule": "CNC(C)[C@@H](O)c1ccc(O)cc1 (stereo not given in full)",
    "Potency": "inactive"
  },
  {
    "molecule": "Oc1ccc2c3c1O[C@H]1[C@@H](O)CC[C@@]4(O)C(C2)N(CC2CCC2)CCC314 (stereo not given in full)",
    "Potency": "inactive"
  },
  {
    "molecule": "CN[C@@H](C)[C@H]1CC[C@@H](N)[C@@H](O[C@@H]2[C@@H](O)[C@@H](O[C@H]3OC[C@@](C)(O)[C@@H](NC)[C@@H]3O)[C@H](N)C[C@@H]2N)O1 (tested in a mixture with another compound)",
    "Potency": "inactive"
  },
  {
    "molecule": "CCC(C)C1O[C@]2(C=CC1C)CC1CC(C/C=C(\\C)[C@H](OC3CC(OC)C(O[C@H]4CC(OC)[C@@H](O)C(C)O4)C(C)O3)[C@@H](C)/C=C/C=C3\\COC4C(O)C(C)=C[C@H](C(=O)O1)[C@@]34O)O2 (stereo not given in full)",
    "Potency": "13.5 µM (active)"
  },
  {
    "molecule": "C[C@@H]1O[C@H](O[C@@H]2C=C3CC[C@H]4[C@@H](CC[C@]5(C)[C@@H](c6ccc(=O)oc6)CC[C@]45O)[C@@]3(C)CC2)[C@@H](O)[C@H](O)[C@@H]1O",
    "Potency": "inactive"
  },
  {
    "molecule": "C[C@H](N)[C@@H](O)c1ccccc1",
    "Potency": "inactive"
  },
  {
    "molecule": "CNc1ccc(C(=O)CC(O)CCC(C)C2OC(=O)CC(O)CC(=O)CC(O)CC(O)CC(O)CC(O)CC3(O)CC(O)C(C(=O)OC)C(CC(O[C@@H]4OC(C)C(O)C(N)C4O)/C=C/C=C/C=C/C=C/C=C/C=C/C=C/C2C)O3)cc1 (stereo not given in full)",
    "Potency": "inactive"
  },
  {
    "molecule": "COc1cc2c(cc1OC)[C@@]13CCN4CC5=CCOC6CC(=O)N2C1[C@H]6[C@@H]5C[C@@H]43 (stereo not given in full)",
    "Potency": "inactive"
  },
  {
    "molecule": "[Hg+][c]1ccccc1",
    "Potency": "9.53 µM (active)"
  }
]
